Tested On: T1, human PVRIG-his (AcroBiosystems, Cat NO. PVG-H52H4) (human, UniProt Q6DKI7 41-171, limits assumed)
T1 construct: also called human PVRIG protein
T1 sequence (looked up): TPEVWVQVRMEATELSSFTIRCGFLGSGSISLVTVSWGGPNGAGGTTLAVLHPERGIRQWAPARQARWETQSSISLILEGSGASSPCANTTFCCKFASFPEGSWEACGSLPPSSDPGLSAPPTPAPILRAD
Experiment Summary: competition ELISA, PVRIG-His coated, competitor human PVRL2-mFc
Experimental: The ELISA plate was pre-coated with 100 μL/well of 0.5 μg/mL human PVRIG-his protein (AcroBiosystems, Cat NO. PVG-H52H4). The tested anti-PVRIG antibodies were diluted from the highest concentration of 16 nM (two-fold concentration). […] After adding a termination solution to terminate the reaction, the absorbance value was read by a microplate reader (MD i3×). […] The IC50 value was calculated by using a Four Parameter Logistic Fit (GraphPadPrism9). […]
Below: a set of entries, each annotated with reported % relative activity (IC50) parental antibody/test antibody.
Field: numeric (%). Do not append units.

Recorded results for 3 binders are shown here.
PVRIG-A118-H5 (Fc fusion, humanized variant of PVRIG-A118; also called A118.VH5; not shown: constant part not restated for the humanized forms; parents are VHH-hinge-CH2-CH3 of human IgG1; detected by anti-human) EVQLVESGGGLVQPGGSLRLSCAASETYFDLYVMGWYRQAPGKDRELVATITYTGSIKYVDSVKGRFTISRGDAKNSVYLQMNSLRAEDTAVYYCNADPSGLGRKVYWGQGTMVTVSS; 146
PVRIG-A50-H1c (Fc fusion, humanized variant of PVRIG-A50; also called A50.VH1c; not shown: constant part not restated for the humanized forms; parents are VHH-hinge-CH2-CH3 of human IgG1; detected by anti-human) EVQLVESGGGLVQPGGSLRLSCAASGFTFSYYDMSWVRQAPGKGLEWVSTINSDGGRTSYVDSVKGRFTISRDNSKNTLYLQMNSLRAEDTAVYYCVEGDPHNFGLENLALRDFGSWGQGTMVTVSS; 65.9
PVRIG-A118-H3 (Fc fusion, humanized variant of PVRIG-A118; also called A118.VH3; not shown: constant part not restated for the humanized forms; parents are VHH-hinge-CH2-CH3 of human IgG1; detected by anti-human) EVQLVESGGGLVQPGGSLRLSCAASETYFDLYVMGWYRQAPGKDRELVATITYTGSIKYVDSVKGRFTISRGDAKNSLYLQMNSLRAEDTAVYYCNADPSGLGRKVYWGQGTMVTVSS; 144

Input PVRIG-A118-H2 (Fc fusion, humanized variant of PVRIG-A118; also called A118.VH2; not shown: constant part not restated for the humanized forms; parents are VHH-hinge-CH2-CH3 of human IgG1; detected by anti-human) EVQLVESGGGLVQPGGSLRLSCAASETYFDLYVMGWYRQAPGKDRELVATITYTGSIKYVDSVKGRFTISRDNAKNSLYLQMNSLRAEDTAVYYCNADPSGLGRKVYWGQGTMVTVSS . Output % relative activity (IC50) parental antibody/test antibody: 156
